B1: POU domain, class 2, transcription factor 1, residues 285 to 354; numbered along this chain, P14859 (parent)
chain: LEELEQFAKTFKQRRIKLGFTQGDVGLAMGKLYGNDFSQTTISRFEALNLSFKNMCKLKPLLEKWLNDAE

- Variants of: B1
- Protocol: abundance fitness (aPCA) (normalised: wild type 0, dead -1); higher = more abundant; growth selection in yeast, the domain comes from the species named
- Experimental Parameters: Homo sapiens
Everything with abundance fitness lower than -0.1 is criterion not met; everything else, including exactly -0.1, is criterion met.

Q: Tell me whether abundance fitness is at least -0.1 here: L62Y
A: criterion met

Q: API: above_or_equal(metric=abundance fitness, cutoff=-0.1) for item I16C
A: criterion not met

Q: Reported abundance fitness at or above -0.1? G30E
A: criterion met

Q: Kindly determine if abundance fitness recorded for L66D is above or exactly -0.1.
A: criterion not met

Q: hey, is abundance fitness for this one >= -0.1? L27Y
A: criterion not met

Q: I'd appreciate it if you could say whether N49C has abundance fitness at least equal to -0.1.
A: criterion met

Q: Does abundance fitness meet or surpass -0.1 for W65Q ?
A: criterion not met

Q: abundance fitness >= -0.1 for S51W ?
A: criterion not met

Q: Test whether the variant L48C records abundance fitness of -0.1 or higher.
A: criterion met

Q: Record K53E ; criterion: abundance fitness no lower than -0.1. Met?
A: criterion met

Q: Check this variant for abundance fitness at or above -0.1: R44S
A: criterion met

Q: Please check the record L1Y and state if its abundance fitness is at or above -0.1.
A: criterion met

Q: Hi, just wondering whether V25L shows abundance fitness of -0.1 or higher.
A: criterion not met

Q: Hi, just wondering whether A69Q shows abundance fitness of -0.1 or higher.
A: criterion met

Q: Reported abundance fitness at or above -0.1? R44D
A: criterion met

Q: Decide: is the reported value of abundance fitness for F11V equal to or greater than -0.1?
A: criterion not met

Q: Would you say Q6N shows abundance fitness at minimum -0.1?
A: criterion met

Q: Decide: is the reported value of abundance fitness for F20K equal to or greater than -0.1?
A: criterion met
